assay.text: inhibitors of hydroxyurea-induced Chk1 phosphorylation, primary screen, imaging, HeLa, phospho-Chk1 nuclear intensity (AID 1187); also: test concentration not given here
study.conditions: hydroxyurea-induced phospho-Chk1 immunofluorescence imaging, higher = more signal
Calls of active or inactive are those of the source. No rule for the calls is given here.
Would you kindly list z-score for each of these compounds?

The examples below pair each entry with its known result.
CN1CCC(CCCO)=CC1c1ccc(CN2CCCC2)cc1 (stereo unspecified): 0.903 (inactive)
COCCOC(=O)N1C(=O)[C@@]2(c3ccccc31)[C@H](C(=O)NC[C@H](O)c1ccccc1)[C@H]1C(=O)O[C@H](c3ccccc3)[C@H](c3ccccc3)N1[C@@H]2c1ccc(OCCO)cc1: -0.262 (inactive)
NCCCCCNC(=O)[C@H]1C[C@H]2C(=O)NCC(=O)N2[C@H]1c1cccc(OCCO)c1: 0.179 (inactive)
CCCC[C@@H]1C[C@H]1[C@@H](NC(=O)c1ccc(-c2ccccc2)cc1)c1ccc(-c2ccccc2)cc1: 0.394 (inactive)
C[C@]1(C(=O)NCc2ccccc2)c2ccccc2C(=O)N(Cc2ccc(OC(F)(F)F)cc2)[C@H]1c1ccc(CO)cc1: -0.341 (inactive)
CCOC(=O)[C@H]1C[C@H]2O[C@@]23C[C@H]1C(=O)N1CCCC1[C@@H]3O[Si](C)(C)C(C)(C)C (stereo partly specified): -0.115 (inactive)
CCOC(=O)C1=C[C@@H](CC)N(S(=O)(=O)c2ccc(C)cc2)[C@H]1c1ccccc1: 0.54 (inactive)
COc1cc(C(O)C2C=CC3C(=O)N(c4ccccc4)C(=O)C3N2Nc2ccc(C#N)cc2)cc(OC)c1OC (stereo unspecified): 0.668 (inactive)
COc1ccc(C(O)C2C=CC3C(=O)N(C)C(=O)C3N2Nc2ccccc2)cc1OCc1ccccc1 (stereo unspecified): 0.344 (inactive)
CC(C)N1CC=CC23O[C@@H]4C=CCOC(=O)[C@@H]4[C@H]2C(=O)N(CCO)[C@@H]3C1=O (stereo partly specified): -0.419 (inactive)

The following compounds each have a reported value; give each one's z-score.
1. CCOC(=O)C[C@H]1[C@H](OC(=O)Cc2ccc3c(c2)OCO3)[C@@H](NC(=O)c2ccc(-c3ccccc3)cc2)c2cc(OCCCO)ccc2N1C(=O)c1ccccc1
2. COCC(=C=CC[C@@H](O)c1ccc(CO)o1)CCO
3. CCC[C@@H]1C=C(C(=O)O)[C@H](c2ccc(C)cc2)N1S(=O)(=O)c1ccc(C)cc1
4. COc1ccc(CCN2C(=O)[C@@]3(Cc4ccccc42)c2ccccc2C(=O)N(Cc2ccccc2Cl)[C@H]3c2ccc(CO)cc2)cc1
5. CCOC(=O)C1=CCC(C(C)(C)C)N(S(=O)(=O)c2ccc(C)cc2)C1 (stereo unspecified)
6. CCCNC(=O)[C@@H]1c2ccccc2C(=O)N(Cc2ccccc2)[C@H]1c1ccc(CO)cc1
7. COC(=O)[C@@]1(Cc2ccc(F)cc2)[C@H]2c3cc(C(=O)N(C)C)n(CCc4ccccn4)c3C[C@H]2CN1C(=O)c1ccccc1

Output:
1. -0.214 (inactive)
2. -0.68 (inactive)
3. 1.34 (inactive)
4. -0.322 (inactive)
5. -1.98 (inactive)
6. -0.142 (inactive)
7. 0.288 (inactive)

###

assay.text: basal MM1S mitochondrial membrane potential changes, profiling panel, cell-based, JC-1 fluorescence, 24 h, 100 nL compound (AID 1170); also: test concentration not given here
study.conditions: higher = more signal
experimental.endpoint: z-score

The following molecules each have a reported value; give each one's z-score.
1. CCCNC(=O)[C@@H]1c2ccccc2C(=O)N(Cc2ccccc2)[C@H]1c1ccc(CO)cc1
2. [N-]=[N+]=NCc1ccccc1C[C@]1(C(=O)O)N=C(c2ccc(OCCCO)cc2)O[C@H]1c1ccccc1
3. O=C1C[C@]2(c3ccc([N+](=O)[O-])cc3)C(=O)N(CC(F)(F)F)c3cc(CO)ccc3[C@H]2N1CC12CC3CC(CC(C3)C1)C2
4. O=c1oc(-c2ccccc2)nc2cc(Br)ccc12
5. O=c1cccc(C=Cc2ccccc2)o1

Output:
1: -0.549; 2: 0.181; 3: -0.964; 4: 0.873; 5: -0.969

###

Would you kindly list z-score for each of these compounds?
target.or.system: Homeobox protein Hox-A13 (Mus musculus) (UniProt Q62424)
Sequence (Q62424 whole entry, looked up): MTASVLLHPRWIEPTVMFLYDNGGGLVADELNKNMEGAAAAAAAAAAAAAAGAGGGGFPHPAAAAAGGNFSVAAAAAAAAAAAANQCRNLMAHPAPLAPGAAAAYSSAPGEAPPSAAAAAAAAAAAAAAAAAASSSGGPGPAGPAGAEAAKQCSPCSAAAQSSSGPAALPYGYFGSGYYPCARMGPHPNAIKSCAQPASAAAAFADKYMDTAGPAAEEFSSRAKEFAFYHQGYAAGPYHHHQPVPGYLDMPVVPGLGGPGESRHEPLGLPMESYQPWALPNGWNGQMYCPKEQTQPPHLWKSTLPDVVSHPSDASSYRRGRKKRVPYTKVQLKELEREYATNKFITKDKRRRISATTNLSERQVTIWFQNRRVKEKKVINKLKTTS
assay.text: inhibitors of HoxA13-DNA binding, primary screen, biochemical, fluorescence polarization, labeled oligonucleotide (AID 1185)
study.conditions: 15 min, higher = more signal, called active from +8 up or from −8 down
Give bare numbers.

The examples below pair each entry with its known result.
C=CCC(OC(C)=O)[C@@H]1[C@@H](N(Cc2cccc3ccccc23)C(=O)c2ccc(C)cc2)c2cc(OCCCO)ccc2N1C(=O)Cc1ccc(OC)cc1 (stereo partly drawn): -0.287
COc1ccc(C#Cc2ccc3c(c2)[C@]2(C(=O)N3)[C@H](c3ccc(O)cc3)N3[C@H](c4ccccc4)[C@H](c4ccccc4)OC(=O)[C@H]3[C@@H]2C(=O)NC[C@H](O)c2ccccc2)cc1: -0.173
C=CCOC(=O)[C@@H]1[C@H]2C(=O)O[C@H](c3ccccc3)[C@H](c3ccccc3)N2[C@H](c2ccc(OCCOC(=O)[C@@H]3C[C@@H]4C(=O)NCC(=O)N4[C@@H]3c3cccc(OCCO)c3)cc2)[C@@]12C(=O)Nc1ccc(I)cc12: 0.8
O=C1C[C@]2(c3ccc([N+](=O)[O-])cc3)C(=O)N(CC(F)(F)F)c3cc(CO)ccc3[C@H]2N1CC12CC3CC(CC(C3)C1)C2: 0.2

The following compounds each have a reported value; give each one's z-score.
1. CCCCC=C[C@@H](NC(=O)c1cccs1)c1ccccc1
2. O=C(CS)NCCCCCCNC(=O)[C@@H]1C[C@@H]2C(=O)N3CCC[C@H]3C(=O)N2[C@@H]1c1ccc(O)cc1
3. [N-]=[N+]=NCc1ccccc1[C@H]1OC(c2ccc(OCCCO)cc2)=N[C@@]1(CCS(=O)(=O)c1ccccc1)C(=O)N1CCOCC1

Output:
[-3.05, -3.65, -3.2]

The following compounds each have a reported value; give each one's z-score.
1. C=C[C@H](COC(C)=O)N(Cc1ccc(OC(C)=O)c(OC)c1)S(=O)(=O)c1ccc(Br)cc1
2. C=CC[C@@]1(C(=O)N2CCOCC2)N=C(c2ccc(OCCCO)cc2)O[C@@H]1c1ccccc1N=[N+]=[N-]
3. COCC(=C=CC[C@@H](O)c1ccc(CO)o1)CCO

Output:
-5.58
-3.44
-3.24

The following compounds each have a reported value; give each one's z-score.
1. C=CCNC(=O)[C@H]1[C@@H]2C(=O)O[C@@H](c3ccccc3)[C@@H](c3ccccc3)N2[C@@H](c2ccc(O)cc2)[C@]12C(=O)N(C(=O)OCCOC)c1ccc(C#CCCO)cc12
2. COCCOC(=O)N1C(=O)[C@@]2(c3cc(C#CCC(C(=O)OC)C(=O)OC)ccc31)[C@H](c1ccccc1OCCO)N1[C@H](c3ccccc3)[C@H](c3ccccc3)OC(=O)[C@H]1[C@@H]2C(=O)N1CCc2cc(OC)c(OC)cc2C1
3. CCCCC(CC)C(O)C1C=CC2C(=O)N(c3ccccc3)C(=O)C2N1Nc1ccccc1 (stereo not drawn)
4. Cc1ccc(S[C@]2(C(=O)NCc3ccccc3)CC(=O)N(Cc3ccccc3)[C@@H]2c2ccc(CO)cc2)cc1
5. COc1ccc([Si](C)(C)[C@H]2[C@H](CCn3cc(CCO)nn3)O[C@@]3(C(=O)N(Cc4ccc(N5CCOC5=O)cc4)c4ccccc43)[C@@H]2C)cc1

Output:
[-3.9, 0.498, -1.89, -2.39, -4.22]

###

Would you kindly list composite z-score for each of these molecules?
target.or.system: Carbonic anhydrase 2 (Homo sapiens)
assay.text: CAII small-molecule binders, profiling panel, biochemical, small-molecule microarray, Alexa647-labelled CAII (AID 1122)
study.conditions: CAII-A647 binding fluorescence, higher = more signal

The examples below pair each entry with its known result.
COc1ccc(C#Cc2ccc3c(c2)[C@]2(C(=O)N3)[C@H](c3ccc(O)cc3)N3[C@H](c4ccccc4)[C@H](c4ccccc4)OC(=O)[C@H]3[C@@H]2C(=O)N2CCCCCCC2)cc1: 0.504
O=C1C[C@@](C(=O)NC2CC2)(c2ccc([N+](=O)[O-])cc2)[C@@H](c2ccc(CO)cc2)N1CC12CC3CC(CC(C3)C1)C2: 0.22
CCCCC(CC)C(O)C1C=CC2C(=O)N(c3ccccc3)C(=O)C2N1Nc1ccccc1 (centres undefined): 0.665
CN(C)C(=O)[C@]1(CCC(=O)OC(C)(C)C)N=C(c2ccc(OCCCO)cc2)O[C@@H]1c1ccccc1N=[N+]=[N-]: 0.719
O=C1O[C@H](c2ccccc2)[C@H](c2ccccc2)N2[C@H]1[C@@H](C(=O)O)[C@]1(C(=O)Nc3ccc(C#CC4(O)CCCCCC4)cc31)[C@H]2c1ccc(OCCO)cc1: 0.672
COC(=O)[C@@]1(Cc2ccc(F)cc2)[C@H]2c3cc(C(=O)N4CCCC4)n(Cc4cccc5ccccc45)c3C[C@H]2CN1C(=O)c1ccccc1: 0.533

The following molecules each have a reported value; give each one's composite z-score.
1. CN(C)CCCNC(=O)[C@@]1(Cc2ccccc2I)c2ccccc2C(=O)N(Cc2ccccc2C(F)(F)F)[C@H]1c1ccc(CO)cc1
2. COC(=O)[C@@]1(Cc2ccccc2)[C@H]2c3cc(C(=O)N(C)C)n(Cc4c(-c5ccccc5)noc4C)c3C[C@H]2CN1C(=O)c1ccccc1
3. C=CCC(OC(C)=O)[C@@H]1[C@@H](N(Cc2cccc3ccccc23)C(=O)c2cccc3ccccc23)c2cc(OCCCO)ccc2N1C(=O)c1ccc2ccccc2n1 (some centres undefined)
4. O=C1C=CC(=O)[C@@H]2CC(COc3ccccc3)=C3[C@@H](CCc4ccccc4)OB(O)C[C@@H]3[C@H]12
5. CN(C)CCCCCCNC(=O)[C@H]1C[C@H]2C(=O)N[C@@H](CCCCN)C(=O)N2[C@H]1c1ccc(O)cc1
6. CCOC(=O)C[C@H]1[C@H](OC(=O)c2ccc(-c3ccccc3)cc2)[C@@H](NC(=O)Cc2ccc(OC)cc2)c2cc(OCCCO)ccc2N1C(=O)c1ccc2ccccc2n1
7. Cc1cc(C)c(C(O)C2C=CC3C(=O)N(C)C(=O)C3N2Nc2ccccc2)c(C)c1 (centres undefined)

Output:
1: 0.662; 2: 0.437; 3: -0.12; 4: -0.0292; 5: 0.586; 6: 0.19; 7: 0.784

Lab note: molecule COC(=O)[C@@]1(Cc2ccccc2)[C@H]2c3cc(C(=O)N4CCCC4)n(Cc4ccc(C)o4)c3C[C@H]2CN1C(=O)c1ccccc1 tested on Carbonic anhydrase 2 (Homo sapiens); recorded composite z-score was 0.787
